- Test system: T1, HLA-DR13 (DRB1*1301) (human)
- T1 chain 1: not shown
- T1 chain 2: not shown
- Measurement description: competition ELISA, nonbiotinylated reference peptide against its biotinylated tracer
Where no end group is shown, it is not given here.
Property measured: IC50 (nM)
Dear colleague, please return just the value in nM, with no unit written.

Asked: Report IC50 for TERVRLVTRHIYNREE (not fully specified) [B1 21-36 (nonbiotinylated reference peptide)] please.
Given back: 39
